Hello, the source for this data is PubChem BioAssay (NCI), in case you need it.

System: OVCAR-8 ovarian
Experiment: NCI tumour cell line growth inhibition, 48 h; in the data active = GI50 below about 0.43 µM; inactive = the rest
Result category, one only: yes (active), no (inactive)

Recorded results for 3 molecules are shown here.
{"MOLECULE": "O=C(Oc1ccccc1Cl)c1ccccc1Nc1ccnc(C(F)(F)F)c1", "ANSWER_LABEL": "yes"}
{"MOLECULE": "O=C(c1ccccc1)c1nc2ccc(C(F)(F)F)cc2[n+]([O-])c1C(F)(F)F", "ANSWER_LABEL": "no"}
{"MOLECULE": "CCCCn1sc(=O)n(Cc2ccc(CNC(=O)OCc3ccc4c(Br)cc(Br)c(O)c4n3)cc2)c1=O", "ANSWER_LABEL": "yes"}

Ask: Which result was noted for this molecule in the test: CC1=C[S+](c2ccccc2)c2cccc3cc4ccccc4c1c23 (configuration not stated)
Reply: yes

Ask: Which result was noted for this molecule in the test: CC(=O)[O-].O=C([CH-]C(=O)c1ccccc1)c1ccccc1.O=C([CH-]C(=O)c1ccccc1)c1ccccc1.[Y+3]
Reply: no

* * *

System: DU-145 prostate
Assay: NCI tumour cell line growth inhibition, 48 h
So I've got a bunch of molecules here, and I need their TGI values.
Numbers only, in µM.

{"MOLECULE": "O=C(Oc1ccccc1Cl)c1ccccc1Nc1ccnc(C(F)(F)F)c1", "TESTED_ON": "DU-145 prostate", "OBSERVATION_TYPE": "TGI", "RECORDED_VALUE": 13.3}

Please supply TGI for each of the following items, keeping them in order.
1. C=C1C(=O)O[C@H]2[C@H]1CC/C(COC(=O)c1ccc(C#N)cc1)=C\CC[C@@]1(C)O[C@@H]21
2. S=c1sc2nc(Cl)nc(Cl)c2s1
3. CCOC(=O)c1cc2c(n1Cc1ccccc1)-c1oncc1CC2
4. N=C(N)SCc1cccc2c(=O)cc(-c3ccccc3)oc12

Reply:
1. 2.83
2. 30.9
3. 44
4. 16.2

Item C=C(C)[C@@H]1CC[C@]2(COC3CCCCO3)CC[C@]3(C)[C@H](CC[C@@H]4[C@@]5(C)C=C(C=O)C(=O)C(C)(C)[C@@H]5CC[C@]43C)[C@@H]12 (stereo not given in full) ; assay system DU-145 prostate; TGI reported as 2.92

* * *

Test system: SF-295 CNS
Assay: NCI tumour cell line growth inhibition, 48 h
OBSERVATION_TYPE: GI50

Some molecules with known GI50 results, for comparison:
{"MOLECULE": "Nc1nnc(Cn2c(-c3ccccc3)nc3ccc(Br)cc3c2=O)s1", "GI50": "26.2 µM"}
{"MOLECULE": "C#CCOc1cccc(Nc2ncnc3ccc(NC(=O)CCl)cc23)c1", "GI50": "2.29 µM"}
{"MOLECULE": "O=C(O)C1(Cc2cccc(Nc3nccs3)n2)CCC(Oc2cccc(Cl)c2F)CC1 (configuration not stated)", "GI50": "1.31 µM"}
{"MOLECULE": "CN(CCCl)c1ccc(/C=C/C2=[N+](C)c3ccccc3C2(C)C)cc1", "GI50": "0.728 µM"}

Please supply GI50 for each of the following items, keeping them in order.
1. CCOC(=O)Nc1ccc(-c2nc(-c3cccc(OC)c3)c(-c3ccnc(Br)c3)[nH]2)cc1
2. CCC(C(=O)[O-])C(=O)[O-].CCC(C(=O)[O-])C(=O)[O-].N.N.NCCCCCCN.[Pt+4].[Pt+4]
3. CCCCC#CC#Cc1cccc(=O)o1
4. O=C1/C(=C/c2ccccc2)CN(C(=O)OCc2ccccc2)C/C1=C\c1ccccc1
5. C[C@H]1C(Oc2ccc(O)cc2)OC2OC3(C)CCC4[C@H](C)CCC1C24OO3 (some centres not stated)
6. Cc1nc(N)sc1C(=O)Nc1cc(C(=O)NCCCN(C)C)n(C)c1

Reply:
1: 0.416 µM; 2: 23.2 µM; 3: 18.8 µM; 4: 3.63 µM; 5: 16.2 µM; 6: > 100 µM

Please supply GI50 for each of the following items, keeping them in order.
1. O=C(OCc1ccc2c(Cl)cc(Cl)c(O)c2n1)c1cc2ccccc2[nH]1
2. COc1ccc(-c2cc(-c3cc(OC)c(OC)c(OC)c3)c(C#N)c(N3CCOCC3)n2)cc1O

Reply:
1.64 µM
6.38 µM

* * *

Tested on: NCI/ADR-RES ovarian
Assay: NCI tumour cell line growth inhibition, 48 h
OBSERVATION_TYPE: TGI

{"SMILES_INPUT": "C[C@]12[C@@H]3CC[C@H]1[C@@H](OC(=O)Nc1cc([N+](=O)[O-])cc([N+](=O)[O-])c1)C(=O)N2CC3", "TESTED_ON": "NCI/ADR-RES ovarian", "RECORDED_VALUE": "> 100 µM"}
{"SMILES_INPUT": "N#Cc1ccc(C(c2ccc(C#N)cc2)n2cncn2)cc1", "TESTED_ON": "NCI/ADR-RES ovarian", "RECORDED_VALUE": "> 5000 µM"}
{"SMILES_INPUT": "O=[N+]([O-])c1ccc(Sc2c3ccccc3nc3ccccc23)nc1", "TESTED_ON": "NCI/ADR-RES ovarian", "RECORDED_VALUE": "45.7 µM"}
{"SMILES_INPUT": "Cc1c2c(n(CCN(C)C)c1C)NN=C(C#N)S2(=O)=O", "TESTED_ON": "NCI/ADR-RES ovarian", "RECORDED_VALUE": "> 100 µM"}

The recorded TGI for CN(CCCl)c1ccc(/C=C/C2=[N+](C)c3ccccc3C2(C)C)cc1 is > 100 µM

* * *

So I've got a bunch of compounds here, and I need their TGI values.
System: UACC-257 melanoma
Assay: NCI tumour cell line growth inhibition, 48 h
One number for each entry, in µM.

Please supply TGI for each of the following items, keeping them in order.
1. CC1=C[S+](c2ccccc2)c2cccc3cc4ccccc4c1c23 (stereo not drawn)
2. CCOC(=O)Nc1ccc(-c2nc(-c3cccc(OC)c3)c(-c3ccnc(Br)c3)[nH]2)cc1
3. Cn1c2c(c3ccccc31)CCN(CCCCN1CCN(c3cccc(Cl)c3)CC1)C2=O
4. CCc1nc(Cl)nc(Cl)c1Cl

Reply:
1.68
7.9
19.8
1.87

Please supply TGI for each of the following items, keeping them in order.
1. O=C1CCc2c(sc3[nH]c(=S)n(Cc4ccccc4)c(=O)c23)C1
2. COc1cc2c(cc1O)[C@@H]1Cc3c(cc(OC)c(OC)c3Oc3cc4c(cc3OC)CCN(C)[C@@H]4Cc3ccc(O)cc3)[C@H](C2)N1C

Reply:
[7.06, 44.6]

Please supply TGI for each of the following items, keeping them in order.
1. CN1CCC23c4c5ccc(O)c4OC2c2[nH]c4ccccc4c2CC3(O)C1C5 (stereo not drawn)
2. N[C@@H]1CCCN(c2c(/C=C3\SC(=O)NC3=O)cccc2-c2ccccc2)C1
3. CCCCCC/C=C\CCCCCCCCCC1=CC(=O)C=C(OC)C1=O
4. C[C@H]1C(Oc2ccc(O)cc2)OC2OC3(C)CCC4[C@H](C)CCC1C24OO3 (stereo partly drawn)
5. C=C1C(=O)O[C@H]2[C@H]1CC/C(COC(=O)c1ccc(C#N)cc1)=C\CC[C@@]1(C)O[C@@H]21
6. CCOC(=O)c1cc2c(n1Cc1ccccc1)-c1oncc1CC2

Reply:
36.8
23.5
9.11
28.4
4.1
59.7

* * *

Tested on: SK-MEL-2 melanoma
Assay: NCI tumour cell line growth inhibition, 48 h
So I've got a bunch of compounds here, and I need their TGI values.
Give bare numbers, in µM.

Some compounds with known TGI results, for comparison:
{"COMPOUND": "S=c1sc2nc(Cl)nc(Cl)c2s1", "OBSERVATION_TYPE": "TGI", "RECORDED_VALUE": 23.8}
{"COMPOUND": "O=C(OCc1ccc2c(Cl)cc(Cl)c(O)c2n1)c1cc2ccccc2[nH]1", "OBSERVATION_TYPE": "TGI", "RECORDED_VALUE": 3.25}
{"COMPOUND": "C=C(C)[C@@H]1CC[C@]2(COC3CCCCO3)CC[C@]3(C)[C@H](CC[C@@H]4[C@@]5(C)C=C(C=O)C(=O)C(C)(C)[C@@H]5CC[C@]43C)[C@@H]12 (stereo partly specified)", "OBSERVATION_TYPE": "TGI", "RECORDED_VALUE": 3.26}

Please supply TGI for each of the following items, keeping them in order.
1. C[C@H]1C(Oc2ccc(O)cc2)OC2OC3(C)CCC4[C@H](C)CCC1C24OO3 (stereo partly specified)
2. N=C(N)SCc1cccc2c(=O)cc(-c3ccccc3)oc12
3. O=[N+]([O-])c1ccc(Sc2c3ccccc3nc3ccccc23)nc1
4. C#Cc1cccc(Nc2nc3ccc([N+](=O)[O-])cc3nc2Nc2cccc(C#C)c2)c1

Reply:
[23, 25.2, 38.8, 0.742]
